B1: BTBD1 (parent)
chain: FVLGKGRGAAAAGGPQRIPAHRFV

# Variants of: B1
# procedure_summary: protein stability index of a GFP-peptide fusion (GPS, HEK-293T) (PSI 1-6); higher = more stable;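 further: lentivirally expressed fusions sorted by FACS into six bins by GFP to DsRed ratio, PSI derived from sequencing read proportions per bin multiplied by bin number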
# test_parameters: c terminus: a fixed tail appended

variant_spec: K5S
protein stability index: 1.98
--
variant_spec: G14D
protein stability index: 2.64
--
variant_spec: P15H
protein stability index: 1.85
--
variant_spec: A20Q
protein stability index: 1.73
--
variant_spec: G8V
protein stability index: 1.39
--
variant_spec: R17I
protein stability index: 3.15
--
variant_spec: R17C
protein stability index: 1.9
--
variant_spec: P19T
protein stability index: 1.88
--
variant_spec: V2T
protein stability index: 2.35
--
variant_spec: A9T
protein stability index: 1.96
--
variant_spec: A10M
protein stability index: 1.34
--
variant_spec: F23Y
protein stability index: 1.71
--
variant_spec: A9C
protein stability index: 2.47
--
variant_spec: G8P
protein stability index: 1.55
--
variant_spec: A10R
protein stability index: 1.91
--
variant_spec: G6A
protein stability index: 1.97
--
variant_spec: A10F
protein stability index: 2.27
--
variant_spec: V24S
protein stability index: 2.21
--
variant_spec: R17E
protein stability index: 2.13
--
variant_spec: G14R
protein stability index: 1.04
--
variant_spec: A10N
protein stability index: 1.96
--
variant_spec: G4P
protein stability index: 2.59
